- Tested on: MCF-7/DOX cells
- assay method text: MTT anti-proliferative assay, MCF-7/DOX
- Assay type: cell-based, human
- experimental setup: Homo sapiens, MCF7-DOX; MTT, 48 h; read-out: MCF-7/DOX IC50 ± SD
- Experimental: All cell lines were purchased from Cell Bank of Shanghai Institute of Biochemistry and Cell Biology, Chinese Academy of Sciences (Shanghai, China). […] Cells (MCF-7, MCF-7/DOX, MCF-10A, LO2) were seeded in 96-well plates at a density of 3,000–6,000 cells per well. […] Cell viability was evaluated using 3-(4, 5-dimethylthiazolyl)-2,5-diphenyltetrazoliumbromide (MTT). […] Cell viability was calculated using the following formula: […]
pIC50: −log10 of the molar value.
endpoint name: pIC50

# example entries with known answers
Recall and state the measured pIC50 for "COc1cc(/C=C/C(=O)N2CCN(C(=O)C3=Cc4cc(Br)ccc4S3(=O)=O)CC2)cc(OC)c1OC" .
6.07

Recall and state the measured pIC50 for "COc1ccc(/C=C/C(=O)N2CCN(C(=O)C3=Cc4ccc(Br)cc4S3(=O)=O)CC2)cc1OC" .
5.75

Recall and state the measured pIC50 for "COc1cc(/C=C/C(=O)N2CCN(C(=O)C3=Cc4cc(Br)ccc4S3(=O)=O)CC2)cc(OC)c1O" .
5.64

I: COc1ccc(/C=C/C(=O)N2CCN(C(=O)C3=Cc4ccc(Br)cc4S3(=O)=O)CC2)cc1
II: O=C(/C=C/c1ccc(F)cc1)N1CCN(C(=O)C2=Cc3cc(Br)ccc3S2(=O)=O)CC1
III: O=C(/C=C/c1ccc(Br)cc1)N1CCN(C(=O)C2=Cc3cc(Br)ccc3S2(=O)=O)CC1
Put the compounds in ascending order of pIC50. Quick reminder: the answer is the labels in the order asked.
II, III, I
(II: 5.61, III: 5.93, I: 6.42)
